target: T1, EGFR Fc (human, UniProt P00533 25-645); test: ELISA, EGFR Fc coated, VHH at 0.08 nM
T1 construct: also called EGFR-hFc; recombinant human EGFR-Fc
For each of the binders below, state its OD450.
Numbers only.

binder="pgEG-SX3 (VHH, not shown: small tags and cut ends) VHH: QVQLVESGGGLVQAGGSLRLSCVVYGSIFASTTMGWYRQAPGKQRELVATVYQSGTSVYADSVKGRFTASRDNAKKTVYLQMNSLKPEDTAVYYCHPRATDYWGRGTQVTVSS" value_kind=OD450 observed=0.373

For the next question, use this binder.
Ask: For pgEG-SX9 (VHH, not shown: small tags and cut ends) VHH: QVQLVESGGGLVQAGGSLRLSCAASVSGSALSNMAWYRQRPGNQRELVAHITFDNFTNYADSVKGRFTISRDNVKNTVDLQMSSLKPEDTAVYYCNARHFFGDNYWGKGTLVTVSS , write its OD450.
Reply: 1.84
